tested on: P. falciparum stage V gametocytes; parameters: BacTiter-Glo ATP luminescence viability of purified stage V gametocytes in 384-well plates, per cent inhibition versus DMSO; settings: 48 h, 5 µM; inhibitor
Hit rate of the full screen: of about 13,000 compounds, about 3,200 (25%) showed an effect of 50% or more. The list shows a part of the results.
assayEndpoint: % Inhibition (%)

compound=O=S(=O)(NCCN1CCCC1)c1ccc(-c2cccc(CNCc3ccccc3)c2)s1 numericresult=86.1
compound="CC(C)(C)C(=O)Oc1ccc(CC2NCCc3cc(OC(=O)C(C)(C)C)c(OC(=O)C(C)(C)C)cc32)cc1OC(=O)C(C)(C)C (centres unmarked)" numericresult=-22.51
compound="CN(Cc1cccc(F)c1)C1CCN(c2cc(NC(=O)c3ccc(F)cc3)ccn2)C1 (centres unmarked)" numericresult=-24.42
compound=O=S(=O)(NCCN1CCCC1)c1ccc(-c2ccc(CN3Cc4ccccc4C3)cc2)s1 numericresult=9.199
compound=O=S(=O)(NCCN1CCCC1)c1ccc(-c2ccc(CNCc3ccccc3)cc2)s1 numericresult=71.01
compound=C=CC[C@H](C[C@H](O)[C@H](Cc1ccccc1)NC(=O)c1ccc(-c2cccnn2)cc1)C(=O)NC1CCCCC1 numericresult=-14.32
compound="c1ccc(C2CCC(N3CCC(N4CCN(c5ccccc5)CC4)CC3)CC2)cc1 (centres unmarked)" numericresult=20.28
compound="O=C1COC2(CN1CC1CCN(Cc3ccc(O)c(Cl)c3)C1)c1ccccc1-c1ccccc12 (centres unmarked)" numericresult=-1.738
